// provenance: patent US20230146239A1

Assay: Mouse pharmacokinetics, iv
Settings: female, CD-1, mouse, in vivo, 10 mg/kg
REPORTED METRIC: Vd (L/kg)

1. CN[C@H](CC(C)C)C(=O)N[C@H]1C(=O)N[C@@H](CC(N)=O)C(=O)N[C@H]2C(=O)NC3C(=O)N[C@H](C(=O)N[C@H](C(=O)NCCC[N+](C)(C)C)c4cc(O)cc(O)c4-c4cc3ccc4O)[C@H](O)c3ccc(c(Cl)c3)Oc3cc2cc(c3OC2OC(CO)C(O)[C@H](O)[C@@H]2O[C@H]2CC(C)(NCc3ccc(-c4ccc(Cl)cc4)cc3)[C@H](O)[C@H](C)O2)Oc2ccc(cc2Cl)[C@H]1O (single isomer, unassigned) [Compound 4, C1-CBP-vancomycin]
0.64

###

Assay: Mouse pharmacokinetics, iv
Settings: female, CD-1, mouse, in vivo, 10 mg/kg
REPORTED METRIC: half-life (h)

1. CN[C@H](CC(C)C)C(=O)N[C@H]1C(=O)N[C@@H](CC(N)=O)C(=O)N[C@H]2C(=O)NC3C(=O)N[C@H](C(=O)N[C@H](C(=O)NCCC[N+](C)(C)C)c4cc(O)cc(O)c4-c4cc3ccc4O)[C@H](O)c3ccc(c(Cl)c3)Oc3cc2cc(c3OC2OC(CO)C(O)[C@H](O)[C@@H]2O[C@H]2CC(C)(NCc3ccc(-c4ccc(Cl)cc4)cc3)[C@H](O)[C@H](C)O2)Oc2ccc(cc2Cl)[C@H]1O (single isomer, unassigned) [Compound 4, C1-CBP-vancomycin]
5.1

###

Assay: Mouse pharmacokinetics, iv
Conditions: female, CD-1, mouse, in vivo, 10 mg/kg
REPORTED METRIC: Cmax (ng/mL)

1) CN[C@H](CC(C)C)C(=O)N[C@H]1C(=O)N[C@@H](CC(N)=O)C(=O)N[C@H]2C(=O)NC3C(=O)N[C@H](C(=O)N[C@H](C(=O)NCCC[N+](C)(C)C)c4cc(O)cc(O)c4-c4cc3ccc4O)[C@H](O)c3ccc(c(Cl)c3)Oc3cc2cc(c3OC2OC(CO)C(O)[C@H](O)[C@@H]2O[C@H]2CC(C)(NCc3ccc(-c4ccc(Cl)cc4)cc3)[C@H](O)[C@H](C)O2)Oc2ccc(cc2Cl)[C@H]1O (single isomer, unassigned)
14500

###

Test: Mouse pharmacokinetics, iv
Conditions: female, CD-1, mouse, in vivo, 10 mg/kg
REPORTED METRIC: AUC

1. CN[C@H](CC(C)C)C(=O)N[C@H]1C(=O)N[C@@H](CC(N)=O)C(=O)N[C@H]2C(=O)NC3C(=O)N[C@H](C(=O)N[C@H](C(=O)NCCC[N+](C)(C)C)c4cc(O)cc(O)c4-c4cc3ccc4O)[C@H](O)c3ccc(c(Cl)c3)Oc3cc2cc(c3OC2OC(CO)C(O)[C@H](O)[C@@H]2O[C@H]2CC(C)(NCc3ccc(-c4ccc(Cl)cc4)cc3)[C@H](O)[C@H](C)O2)Oc2ccc(cc2Cl)[C@H]1O (single isomer, unassigned)
48400 ng·h/mL
